Each entry below carries its reported Percent monomer.
# ASSAY NAME: Analytical size exclusion chromatography (aggregation state, percent monomer)
# Assay type: physicochemical
# EXPERIMENTAL PARAMETERS: NEM-conjugated cysteine variants; SEC, Abs280
Write it as a number; the unit % goes unstated.

{"MOLECULE": "T93C (protein, EGFR binding FN3 domain; EGFR-binding FN3 domain) chain 1: MLPAPKNLVVSEVTEDSARLSWDDPWAFYESFLIQYQESEKVGEAIVLTVPGSERSYDLTGLKPGTEYTVSIYGVHNVYKDTNMRGLPLSAIFCT chain 2: LPAPKNLVVSEVTEDSARLSWDDPWAFYESFLIQYQESEKVGEAIVLTVPGSERSYDLTGLKPGTEYTVSIYGVHNVYKDTNMRGLPLSAIFCT", "Percent monomer [%]": 100}

(Q) Can you look up the measured Percent monomer of S20C (protein, EGFR binding FN3 domain; EGFR-binding FN3 domain) chain 1: MLPAPKNLVVSEVTEDSARLCWDDPWAFYESFLIQYQESEKVGEAIVLTVPGSERSYDLTGLKPGTEYTVSIYGVHNVYKDTNMRGLPLSAIFTT chain 2: LPAPKNLVVSEVTEDSARLCWDDPWAFYESFLIQYQESEKVGEAIVLTVPGSERSYDLTGLKPGTEYTVSIYGVHNVYKDTNMRGLPLSAIFTT for me?
(A) 94
